Molecular target: Fatty-acid amide hydrolase 1 (Homo sapiens)
Assay: Reversible inhibition of human FAAH
MEASUREMENT_TYPE: IC50 (nM)
Give the value, in units of nM, as a plain number.

In: Which measured IC50 value corresponds to CCn1c(=O)n(C2CCCN(c3nccc(-c4cc5ccccc5o4)n3)C2)c2ccccc21 (stereo not drawn) ?
Out: 10

In: Which measured IC50 value corresponds to "CCn1ccc2cc(-c3ccc4oc(N5Cc6ccccc6C5)nc4c3)ccc21" ?
Out: 1.3

---

Biological target: Fatty-acid amide hydrolase 1 (Rattus norvegicus)
Sequence (P97612 whole entry): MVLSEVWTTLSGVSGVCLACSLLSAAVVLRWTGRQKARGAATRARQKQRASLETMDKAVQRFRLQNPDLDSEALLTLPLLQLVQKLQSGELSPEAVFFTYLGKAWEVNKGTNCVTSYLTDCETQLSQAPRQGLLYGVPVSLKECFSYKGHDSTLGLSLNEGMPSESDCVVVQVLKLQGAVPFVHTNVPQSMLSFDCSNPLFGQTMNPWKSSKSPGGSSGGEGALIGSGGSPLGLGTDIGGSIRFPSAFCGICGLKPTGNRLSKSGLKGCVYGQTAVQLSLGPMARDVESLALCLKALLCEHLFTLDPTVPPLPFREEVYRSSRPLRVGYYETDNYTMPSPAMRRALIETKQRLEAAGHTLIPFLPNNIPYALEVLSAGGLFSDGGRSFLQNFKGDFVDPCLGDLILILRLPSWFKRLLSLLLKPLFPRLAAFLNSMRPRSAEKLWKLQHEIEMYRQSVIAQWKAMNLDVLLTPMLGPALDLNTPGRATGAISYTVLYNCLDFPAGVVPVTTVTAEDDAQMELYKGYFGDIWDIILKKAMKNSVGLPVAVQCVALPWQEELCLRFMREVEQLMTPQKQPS
MEASUREMENT_TYPE: Ki (µM)
Give the value, in units of µM, as a plain number.

INSERT INTO assay_data (smiles, measurement_type, quantitative_result) VALUES
  ('CCCCCCCC/C=C\CCCCCCCC(=O)c1nc2cccnc2o1', 'Ki', 0.011);

Here's the next entry for you.
In: Which measured Ki value corresponds to "CCCCCCCC/C=C\CCCCCCCC(=O)C1=NCCO1" ?
Out: 4.5

---

Sequence of the target: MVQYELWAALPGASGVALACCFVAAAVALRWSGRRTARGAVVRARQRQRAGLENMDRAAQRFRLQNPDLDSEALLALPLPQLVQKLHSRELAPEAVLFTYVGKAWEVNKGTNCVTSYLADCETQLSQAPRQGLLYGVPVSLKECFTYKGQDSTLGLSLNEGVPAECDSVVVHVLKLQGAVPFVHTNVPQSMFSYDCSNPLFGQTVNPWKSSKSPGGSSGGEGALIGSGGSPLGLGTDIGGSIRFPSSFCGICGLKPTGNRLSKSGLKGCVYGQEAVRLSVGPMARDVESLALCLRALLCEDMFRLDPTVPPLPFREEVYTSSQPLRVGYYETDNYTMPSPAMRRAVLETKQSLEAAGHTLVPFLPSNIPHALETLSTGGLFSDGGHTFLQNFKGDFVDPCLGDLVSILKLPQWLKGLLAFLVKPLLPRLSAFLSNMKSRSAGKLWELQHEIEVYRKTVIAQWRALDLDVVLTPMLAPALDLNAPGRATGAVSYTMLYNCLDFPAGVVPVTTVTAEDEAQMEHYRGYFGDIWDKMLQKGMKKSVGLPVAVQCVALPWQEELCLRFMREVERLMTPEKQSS
Decision: Ki beneath 5 nM gives Condition met; Ki meeting or exceeding 5 nM gives Condition not met.

In: Is it true that Ki reported for "CCCCCCCCCC(=O)c1nc2ncccc2o1" is less than 5 nM?
Out: Condition met
